A collection of compounds and their measured OS2 R1
condition.label: pH 6.36
value.type: OS2 R1

| compound | numeric.result |
| --- | --- |
| CCCCCCCCO | 2 |
| CCOCCOCC | 2 |
| C=C(C)C(=O)OCCOCC [2-Ethoxyethyl methacrylate] | 2 |
| CCCCCCCCCCCC(=O)O | 1 |
| CC(=O)CC(=O)OC(C)C [Isopropyl acetoacetate] | 1 |
| CCCCCCO | 2 |
| CCCCC(CC)COC(=O)CC(C(=O)OCC(CC)CCCC)S(=O)(=O)[O-].[Na+] (centres unmarked) | 2 |
| CC(C)O | 2 |
| CCOC(C)=O [Ethyl acetate] | 2 |
| COC(C)=O [Methyl acetate] | 2 |
| Cc1ccc(C=S)cc1 | 1 |
| OCc1cccc(Oc2ccccc2)c1 | 2 |
| O=C(Cl)c1c(Cl)cccc1Cl [2,6-Dichlorobenzoyl chloride] | 1 |
| OC1CCCC1 | 1 |

* * *

protocol.details: OS2 (OPTISAFE2), OPTISAFE formulation with antioxidants
condition.label: Table 7B; repeat 3, with antioxidants; predicted GHS class

| compound | OS2 R3 |
| --- | --- |
| CCOC(=O)C(C)C(C)=O (stereo not shown) [Ethyl-2-methyl acetoacetate] | 1 |
| Cc1ncnc2nc[nH]c12 [6-Methyl purine] | 1 |
| CC(C)(O)CCC(C)(C)O | 1 |
| CC(C=O)Cc1ccc(C(C)(C)C)cc1 (stereo not shown) [Protectol PP] | 1 |
| O=C1CCCO1 [gamma-Butyrolactone] | 2 |
| C=CCO [Allyl alcohol] | 1 |

* * *

condition.label: pH 6.36
value.type: OS2 R3

| molecule | numeric.result |
| --- | --- |
| O=C(Cl)c1c(Cl)cccc1Cl [2,6-Dichlorobenzoyl chloride] | 1 |
| COC(=O)CC#N [Methyl cyanoacetate] | 1 |
| CCCC(C)CO (stereo not drawn) | 2 |
| OC1CCCC1 | 1 |
| CC(C)C=O | 1 |
| CCOC(C)=O [Ethyl acetate] | 2 |
| CC(C)O | 2 |
| CC(=O)CC(=O)OC(C)C [Isopropyl acetoacetate] | 1 |
| CCCCCCCCO | 2 |
| COC(C)=O [Methyl acetate] | 2 |
| CCCCCCCCCCCC(=O)O | 1 |
| CCCCCCO | 1 |

* * *

protocol.details: OPTISAFE in vitro ocular irritation test, original formulation without antioxidants
condition.label: original formulation without antioxidants; triplicate assays

| compound | OPTISAFE Score AVG |
| --- | --- |
| CCOC(C)=O [Ethyl acetate] | 23.9 |
| c1ccc(OP(Oc2ccccc2)Oc2ccccc2)cc1 | 113.3 |
| CCCCCCCCCCCC | 0.9 |
| CCC(O)C(C)(C)C (centres unmarked) | 19.2 |
| CC(O)CC(C)O (centres unmarked) | 12.0 |
